Test system: LG0703-F948-PDC spheroids with HUVEC/MSC, viability
Assay: Anticancer human tumor LG0703-F948-PDC patient-derived lung adenocarcinoma cell line growth inhibition [IpAb]
Settings: second compound 3.16 µM; first compound 0.316 µM; stronger effect = lower value
Protocol: Combinatorial screen of targeted agents with ipatasertib and abemaciclib in multi-cell type tumor spheroids […] Compounds. […] If the clinical Cmax for an agent had not been determined, the highest concentration tested was 10 microM. NCI60 Cell Culture. […] The optimal seeding densities for each of the cell lines at each time point assessed were determined prior to performing the concentration response studies. […]
Param label: returns yes when viability, T/C < 40%, returns no otherwise, including exact equality.

compound	assigned_class
Cn1nccc1Nc1nccc(-c2ccn(C(CO)c3ccc(Cl)c(F)c3)c(=O)c2)n1 (stereo not given) + CC(C)NCC(C(=O)N1CCN(c2ncnc3c2C(C)CC3O)CC1)c1ccc(Cl)cc1	yes
Cn1ncc(Cl)c1-c1cc(C(=O)NC(CN)Cc2cccc(F)c2)sc1Cl (stereo not given) + CC(C)NCC(C(=O)N1CCN(c2ncnc3c2C(C)CC3O)CC1)c1ccc(Cl)cc1	no
Cc1nc(NC(=O)N2CCCC2C(N)=O)sc1-c1ccnc(C(C)(C)C(F)(F)F)c1 (stereo not given) + CC(C)NCC(C(=O)N1CCN(c2ncnc3c2C(C)CC3O)CC1)c1ccc(Cl)cc1	yes

// switching to the query compound
Given the entry C=CC(=O)N1CCN(c2nc(=O)n(-c3c(C)ccnc3C(C)C)c3nc(-c4c(O)cccc4F)c(F)cc23)C(C)C1 (stereo not given) + CC(C)NCC(C(=O)N1CCN(c2ncnc3c2C(C)CC3O)CC1)c1ccc(Cl)cc1 , would its reported viability, T/C be below 40%?
no

====

Test system: LG0703-F948-PDC spheroids with HUVEC/MSC, viability
Experiment: Anticancer human tumor LG0703-F948-PDC cell line growth inhibition [IpAb]; active = viability on the fitted dose curve at most 10% of control; inactive = the rest;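 further: spheroids exposed to compounds for seven days before readout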
Details: second compound 0.1 µM; first compound 1 µM
Protocol: Combinatorial screen of targeted agents with ipatasertib and abemaciclib in multi-cell type tumor spheroids […] Compounds. […] If the clinical Cmax for an agent had not been determined, the highest concentration tested was 10 microM. NCI60 Cell Culture. […] The optimal seeding densities for each of the cell lines at each time point assessed were determined prior to performing the concentration response studies. […]
Just give me one of these, please: yes (1) = active, no (0) = inactive

Which outcome did this test record for the molecule Cc1nc(NC(=O)N2CCCC2C(N)=O)sc1-c1ccnc(C(C)(C)C(F)(F)F)c1 (stereo not given) + CC(C)NCC(C(=O)N1CCN(c2ncnc3c2C(C)CC3O)CC1)c1ccc(Cl)cc1 ?
no (0)

====

Test system: LG0703-F948-PDC spheroids with HUVEC/MSC, viability
Test: Anticancer human tumor LG0703-F948-PDC cell line growth inhibition [IpAb];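 further: spheroids exposed to compounds for seven days before readout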
Conditions: curve of first compound; second compound 10 µM
Experimental: Combinatorial screen of targeted agents with ipatasertib and abemaciclib in multi-cell type tumor spheroids […] Compounds. […] If the clinical Cmax for an agent had not been determined, the highest concentration tested was 10 microM. NCI60 Cell Culture. […] The optimal seeding densities for each of the cell lines at each time point assessed were determined prior to performing the concentration response studies. […]
Measured IC50, listed per entry.

// worked examples, IC50 included
molecule	IC50
CC(C)n1nc(-c2ccc3oc(N)nc3c2)c2c(N)ncnc21 + CC(C)NCC(C(=O)N1CCN(c2ncnc3c2C(C)CC3O)CC1)c1ccc(Cl)cc1	< 0.316 nM
Cc1nc(NC(=O)N2CCCC2C(N)=O)sc1-c1ccnc(C(C)(C)C(F)(F)F)c1 (stereo not given) + CC(C)NCC(C(=O)N1CCN(c2ncnc3c2C(C)CC3O)CC1)c1ccc(Cl)cc1	< 31.6 nM

What value of IC50 has been recorded for this entry: CC1(C)CCC(CN2CCN(c3ccc(C(=O)NS(=O)(=O)c4ccc(NCC5CCOCC5)c([N+](=O)[O-])c4)c(Oc4cnc5[nH]ccc5c4)c3)CC2)=C(c2ccc(Cl)cc2)C1 + CC(C)NCC(C(=O)N1CCN(c2ncnc3c2C(C)CC3O)CC1)c1ccc(Cl)cc1
< 31.6 nM

Subsequent entry: Cn1cnc2c(F)c(Nc3ccc(Br)cc3Cl)c(C(=O)NOCCO)cc21 + CC(C)NCC(C(=O)N1CCN(c2ncnc3c2C(C)CC3O)CC1)c1ccc(Cl)cc1
< 9.49 nM

Subsequent entry: Cn1ncc(Cl)c1-c1cc(C(=O)NC(CN)Cc2cccc(F)c2)sc1Cl (stereo not given) + CC(C)NCC(C(=O)N1CCN(c2ncnc3c2C(C)CC3O)CC1)c1ccc(Cl)cc1
< 31.6 nM
